Source of measurements: paper PMC8539695

systemTested: DENV2 NS2B/NS3^pro (Dengue virus type 2, UniProt P14340)
Construct: tryptophan residues in the NS2B cofactor domain and in the NS3 protease domain; inferred from Ni-NTA purification and the pET-15b vector
experimentSummary: biochemical
metric: pKd
# pKd: negative log10 of molar concentration; output just the value

COc1ccc(C2CC(=O)c3c(O)cc(O)cc3O2)cc1O (centres unmarked) [HST, 3′,5,7-trihydroxy-4′-methoxyflavanone]; 4.73

// moving on: another record for pKd
Problem: What value of pKd has been reported for the following compound? COc1ccc(C2CC(=O)c3c(O)cc(OC4O[C@H](CO[C@@H]5O[C@@H](C)[C@H](O)[C@@H](O)[C@H]5O)[C@@H](O)[C@H](O)[C@H]4O)cc3O2)cc1O (some centres unmarked) [HSD]
Solution: 4.68

====

compounds and their reported Kd
systemTested: WNV NS2B/NS3^pro (West Nile virus)
Construct: tryptophan residues in the NS2B cofactor domain and in the NS3 protease domain; inferred from Ni-NTA purification and the pET-15b vector
experimentSummary: biochemical
Numbers only here, please. The scale is µM.

COc1ccc(C2CC(=O)c3c(O)cc(OC4O[C@H](CO[C@@H]5O[C@@H](C)[C@H](O)[C@@H](O)[C@H]5O)[C@@H](O)[C@H](O)[C@H]4O)cc3O2)cc1O (some centres unmarked); 19.5

// moving on: another record for Kd
Problem: What value of Kd has been reported for the following compound? COc1ccc(C2CC(=O)c3c(O)cc(O)cc3O2)cc1O (centres unmarked) [HST, 3′,5,7-trihydroxy-4′-methoxyflavanone]
Solution: 13.5

====

systemTested: WNV NS2B/NS3^pro (West Nile virus, UniProt P06935)
Construct: tryptophan residues in the NS2B cofactor domain and in the NS3 protease domain; inferred from Ni-NTA purification and the pET-15b vector; made in house; host or cells: E. coli Lemo (DE3)
Sequence (P06935 1502-1679 limits assumed): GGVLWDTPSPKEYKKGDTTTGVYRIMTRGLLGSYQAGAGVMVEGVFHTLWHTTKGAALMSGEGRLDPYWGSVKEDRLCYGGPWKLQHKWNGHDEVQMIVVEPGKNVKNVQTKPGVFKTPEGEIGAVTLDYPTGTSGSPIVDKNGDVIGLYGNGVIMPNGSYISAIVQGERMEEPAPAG
Sequence (P06935 1424-1463 partner limits assumed): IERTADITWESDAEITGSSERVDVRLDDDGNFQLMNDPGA
experimentSummary: biochemical
compounds and their reported IC50
Numbers only here, please. The scale is µM.

COc1ccc(C2CC(=O)c3c(O)cc(OC4O[C@H](CO[C@@H]5O[C@@H](C)[C@H](O)[C@@H](O)[C@H]5O)[C@@H](O)[C@H](O)[C@H]4O)cc3O2)cc1O (some centres unmarked) [HSD]; 50.7

// moving on: another record for IC50
Problem: What value of IC50 has been reported for the following compound? COc1ccc(C2CC(=O)c3c(O)cc(O)cc3O2)cc1O (centres unmarked) [HST, 3′,5,7-trihydroxy-4′-methoxyflavanone]
Solution: 4.27
